Catalogue of cytotoxicity at 70.5 h values
# ASSAY OVERVIEW: Human HepG2 cell viability assay in 384 well format
# Format: toxicity, cell-based
# Design: dose 125 nL, time 70.5 hour; concentration not given beside the values
# CONDITIONS USED: HepG2 cells, read-out: Inhibition
READOUT TYPE: cytotoxicity at 70.5 h (%)

[[record]]
compound = "COc1ccc(C)cc1NC(=O)CNc1ccn(CC(N)=O)n1"
units_of_measure = "%"
measured = -9.21

[[record]]
compound = "Cc1ccc(-c2nc(CN3CCCC3Cn3cc(C)cn3)no2)cc1 (centres undefined)"
units_of_measure = "%"
measured = 23.6

[[record]]
compound = "CC(=O)N1CCCC1C(=O)NCCOc1ccc(C(C)C)cc1 (centres undefined)"
units_of_measure = "%"
measured = -1.19

[[record]]
compound = "CC(C)COCC1CN(Cc2ccco2)Cc2ncn(C)c21 (centres undefined)"
units_of_measure = "%"
measured = -6.93

[[record]]
compound = "Cc1nc(CCNC(=O)Nc2cc(C(F)(F)F)c[nH]c2=O)cs1"
units_of_measure = "%"
measured = -6.32

[[record]]
compound = "CC(C)OCCC(=O)N(C)c1ccc(F)c(Cl)c1"
units_of_measure = "%"
measured = -4.66

[[record]]
compound = "O=C(CC1COCCN1)N1CCC2(CCc3ccccc32)CC1 (centres undefined)"
units_of_measure = "%"
measured = 8.47

[[record]]
compound = "CN1CCN(Cc2nc3ccccc3[nH]2)[C@H]2CS(=O)(=O)C[C@H]21"
units_of_measure = "%"
measured = -10.2

[[record]]
compound = "c1ccc(-c2nc(CNCCn3cccn3)cs2)cc1"
units_of_measure = "%"
measured = -4.17

[[record]]
compound = "Cc1noc([C@@H]2C[C@H]3OCC[C@H]3N(S(=O)(=O)N(C)C)C2)n1"
units_of_measure = "%"
measured = -0.423

[[record]]
compound = "CN(C)C(C(=O)NCC1(Cn2cccn2)CC1)c1ccc(F)cc1 (centres undefined)"
units_of_measure = "%"
measured = 3.72

[[record]]
compound = "CN1CCN(C(=O)C2CCN(c3cccnn3)C2)CC1 (centres undefined)"
units_of_measure = "%"
measured = -6.3

[[record]]
compound = "CCCn1ncc(C2CC(=O)NCc3nc4sc(C)cn4c32)c1C (centres undefined)"
units_of_measure = "%"
measured = -3.1

[[record]]
compound = "CC(C)N(Cc1cccc(Cl)c1)Cc1nc2c(cnn2C)c(=O)[nH]1"
units_of_measure = "%"
measured = 6.79


###

# ASSAY OVERVIEW: Human HepG2 cell viability assay in 384 well format
# Format: toxicity, cell-based
# Set-up: dose 125 nL, time 70.5 hour; concentration not given beside the values
# CONDITIONS USED: HepG2 cells, read-out: Inhibition
READOUT TYPE: cytotoxicity at 70.5 h (%)

[[record]]
compound = "CCS(=O)(=O)N1CCCC2(COCCN(c3ccccn3)C2)C1 (stereo not given)"
units_of_measure = "%"
measured = -18.6

[[record]]
compound = "CC1(C(=O)N2CCN(c3ncccn3)CC2)CNCCO1 (stereo not given)"
units_of_measure = "%"
measured = -8.07

[[record]]
compound = "Cc1ccc(C2CC(=O)NCc3nc(N)sc32)cc1C (stereo not given)"
units_of_measure = "%"
measured = -5.03

[[record]]
compound = "Cc1nn(C)c2c(NCCCn3cccn3)nc(C(C)C)nc12"
units_of_measure = "%"
measured = 16.2

[[record]]
compound = "Cc1oc(-c2ccoc2)nc1CN1CCCCC1CCn1cccn1 (stereo not given)"
units_of_measure = "%"
measured = -3.32

